// reported interaction score per item
- target or test system: T1, O16
- T1 chain: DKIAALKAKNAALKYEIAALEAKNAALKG
- assay protocol: two-hybrid library CCNG1;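 further: natural log of median RNA to DNA barcode read ratio; higher means stronger binding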
No unit in the answer, please; the number alone is enough.

Please review the following examples before continuing.
>  <binder>
DKIAALKAKNAALKYEIAALEAKNAALKG [O16]

>  <interaction score>
-2.69

$$$$
>  <binder>
DKIAALKAEIAALEYENAALEAENAALEG [O11]

>  <interaction score>
-2.6

$$$$
>  <binder>
DEIAALEAENAALEYKIAALKAENAALEG [O15]

>  <interaction score>
1.41

$$$$

// below: interaction score requested for another binder
Please give measured interaction score of the following entry: DKNAALKAENAALEYEIAALEAEIAALEG [O1]
-2.54

All figures here come from paper PMC10397247.
